- Test system: A549
- Run Description: Cytotoxicity against human A549 cells assessed as growth inhibition after 48 hrs by SRB assay
- Assay type: functional
- Stated Conditions: A549, 48 h
Each entry below carries its reported log10 of GI50.
Please interpret these as log10 of GI50 where GI50 is in nM.

Some solved entries appear below for comparison.
Compound	log10 of GI50
COC(=O)Nc1nc2cc(C(=O)c3cccs3)ccc2[nH]1	1.95
Cc1cc2c(cc1C)C(Cl)=C(COCC(O)CN1CCCCC1)CCC2 (configuration not stated)	3.18

# input for lookup
Give log10 of GI50 for Cc1cc2c(cc1C)C(Cl)=C(COCC(O)CN1CCC(Cc3ccccc3)CC1)CCC2 (configuration not stated) tested on A549.
3.26

----------
Measured GI50, listed per entry for reference.
- Test system: A549
- Run Description: Cytotoxicity against human A549 cells assessed as growth inhibition after 48 hrs by SRB assay
- Type: functional
- Stated Conditions: A549, 48 h
Entry rule: numbers only, all in µM.

Use these answered entries as a reference point.
Molecule	GI50 / µM
CCOC(=O)N1CCN(CC(O)COCC2=C(Cl)c3cc(C)c(C)cc3CCC2)CC1 (centres undefined)	4
Cc1cc2c(cc1C)C(Cl)=C(COCC(O)CN1CCN(c3ccccc3)CC1)CCC2 (centres undefined)	5.8
Cc1cc2c(cc1C)C(Cl)=C(COCC(O)CN1CCN(c3ccc([N+](=O)[O-])cc3)CC1)CCC2 (centres undefined)	0.023
Cc1cc2c(cc1C)C(Cl)=C(COCC(O)CN1CCOCC1)CCC2 (centres undefined)	5.2

Using the record for Cc1cc2c(cc1C)C(Cl)=C(COCC(O)CN1CCSCC1)CCC2 (centres undefined) , state its measured GI50.
0.9

Specify reported GI50 for the molecule shown: Cc1cc2c(cc1C)C(Cl)=C(COCC(O)CN1CCN(c3ccc(C(F)(F)F)cc3)CC1)CCC2 (centres undefined)
3

Check the records and state GI50 for Cc1cc2c(cc1C)C(Cl)=C(COCC(O)CN1CCN(c3ccccc3F)CC1)CCC2 (centres undefined)
6.3

Could you please provide reported GI50 for COc1ccccc1N1CCN(CC(O)COCC2=C(Cl)c3cc(C)c(C)cc3CCC2)CC1 (centres undefined) ? Thanks!
2.1

Check the records and state GI50 for Cc1cc2c(cc1C)C(Cl)=C(COCC(O)CN1CCN(C)CC1)CCC2 (centres undefined)
18.2
